Target: Cytochrome P450 3A5 (Homo sapiens, UniProt P20815)
Sequence (P20815 whole entry): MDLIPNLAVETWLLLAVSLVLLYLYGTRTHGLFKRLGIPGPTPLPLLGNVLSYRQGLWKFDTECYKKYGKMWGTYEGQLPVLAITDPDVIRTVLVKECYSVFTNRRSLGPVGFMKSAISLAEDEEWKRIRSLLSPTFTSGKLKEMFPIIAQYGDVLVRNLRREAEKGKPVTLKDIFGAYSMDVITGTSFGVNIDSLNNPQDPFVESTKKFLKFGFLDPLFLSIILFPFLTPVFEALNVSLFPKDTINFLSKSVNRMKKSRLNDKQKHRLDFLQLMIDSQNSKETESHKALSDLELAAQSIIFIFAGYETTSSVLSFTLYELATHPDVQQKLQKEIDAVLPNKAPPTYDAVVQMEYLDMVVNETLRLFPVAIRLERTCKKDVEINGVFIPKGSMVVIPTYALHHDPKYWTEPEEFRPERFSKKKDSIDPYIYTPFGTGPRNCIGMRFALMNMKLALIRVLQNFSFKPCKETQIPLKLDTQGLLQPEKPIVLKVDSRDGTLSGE
Test: Time dependent inhibition of recombinant human CYP3A5 using midazolam as substrate preincubated for 30 mins in presence of NADPH generating system followed by substrate addition incubated for 30 mins by LC-MS/MS analysis
Assay type: ADME
Quantity Kind: IC50 (nM)
The reply should be a number in nM, with the unit left off.

Form: item C[C@]12CCC(=O)C[C@H]1CC[C@@H]1[C@@H]2CC[C@]2(C)[C@@H](c3ccc(=O)oc3)CC[C@]12O ; test system Cytochrome P450 3A5 (Homo sapiens, UniProt P20815); IC50: 2340

----------
Biological target: Cytochrome P450 3A4 (Homo sapiens, UniProt P08684)
Sequence (P08684 whole entry): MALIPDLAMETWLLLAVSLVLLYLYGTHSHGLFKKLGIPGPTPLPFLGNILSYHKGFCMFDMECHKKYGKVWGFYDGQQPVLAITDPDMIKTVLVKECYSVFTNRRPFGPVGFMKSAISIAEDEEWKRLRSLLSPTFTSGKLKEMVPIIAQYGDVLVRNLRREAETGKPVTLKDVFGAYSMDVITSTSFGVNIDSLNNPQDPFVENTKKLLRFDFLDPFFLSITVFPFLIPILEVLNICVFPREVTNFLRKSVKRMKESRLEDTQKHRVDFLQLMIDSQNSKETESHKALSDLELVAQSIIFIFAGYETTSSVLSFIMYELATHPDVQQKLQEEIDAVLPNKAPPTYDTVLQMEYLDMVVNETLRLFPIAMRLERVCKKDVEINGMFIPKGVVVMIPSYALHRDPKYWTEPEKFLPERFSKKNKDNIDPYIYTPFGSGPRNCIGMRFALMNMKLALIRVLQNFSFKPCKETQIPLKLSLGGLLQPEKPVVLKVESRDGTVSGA
Assay: Inactivation of CYP3A4 in human liver microsomes assessed as inhibition constant using midazolam as substrate preincubated for 5 mins followed by beta-NADP addition for 15 mins and midazolam addition after 10 mins in presence of NADPH-generating system by LC-MS/MS analysis
Format: ADME
Quantity Kind: pKi
Note on units: pKi is unitless, being -log10 of a concentration expressed in mol/L.

Lab book: pKi of C[C@]12CCC(=O)C[C@H]1CC[C@@H]1[C@@H]2CC[C@]2(C)[C@@H](c3ccc(=O)oc3)CC[C@]12O noted as 6.18

----------
Test system: CYP3A
Assay: Inhibition of CYP3A in human liver microsomes at 1 uM using midazolam as substrate incubated for 10 mins relative to control
Format: ADME
Details: probe midazolam
Quantity Kind: inhibition at 10 min, 1 µM (%)
Please state the figure in %; there is no need to write the unit.

Lookup result for C[C@]12CCC(=O)C[C@H]1CC[C@@H]1[C@@H]2CC[C@]2(C)[C@@H](c3ccc(=O)oc3)CC[C@]12O ; measured inhibition at 10 min, 1 µM: 49

----------
Molecular target: CYP3A4 (Homo sapiens, UniProt P08684)
Assay: Time dependent inhibition of recombinant human CYP3A4 assessed as enzyme remaining activity at 2.5 uM using midazolam as substrate preincubated for 30 mins in presence of NADPH-generating system relative to control
Format: ADME
Details: recombinant human CYP3A4, probe midazolam, read-out: TDI
Quantity Kind: activity at 30 min, 2.5 µM (%)
Just the number please, in %, no unit attached.

Short answer for C[C@]12CCC(=O)C[C@H]1CC[C@@H]1[C@@H]2CC[C@]2(C)[C@@H](c3ccc(=O)oc3)CC[C@]12O : activity at 30 min, 2.5 µM was 11.9
